Tested on: Z-138 cell line
Assay: Z-138 Proliferation Assay (Cell Titer Glo, 5 days)
Type: cell-based
Settings: Homo sapiens, 120 h; Z-138 cells, 5 days, Cell Titer Glo; read-out: Proliferation EC50
QUANTITY KIND: EC50

Z-138 cell line data for CCCN(C)c1nc(NC2COC2)cc(C(=O)NC[C@H](O)CN2CCc3ccccc3C2)n1 ; its EC50: < 0.1 µM

Bench note, Z-138 cell line: entry CS(=O)(=O)N1CCN(c2nc(NC3COC3)cc(C(=O)NC[C@H](O)CN3CCc4ccccc4C3)n2)CC1 , its EC50 = 0.101 to 1 µM

// assay Z-138 cell line, entry CC(C)CC(=O)N1CCC(Nc2cc(C(=O)NC[C@H](O)CN3CCc4ccccc4C3)ncn2)CC1 , EC50 value = < 0.1 µM

Param item: Cc1ccc2c(c1)CN(C[C@@H](O)CNC(=O)c1cc(NC3COC3)ncn1)CC2 ; param system: Z-138 cell line; output EC50: > 5 µM

Known value: Z-138 cell line EC50 of the molecule CN1CCC(Nc2cc(C(=O)NCC(C)(O)CN3CCc4ccccc4C3)ncn2)CC1 (centres unmarked) equals > 5 µM

Measured EC50 (Z-138 cell line), entry O=C(NC[C@H](O)CN1CCc2ccccc2C1)c1ccnc(NC2CN(C(=O)C3CC3)C2)c1 : < 0.1 µM

Item: CC(C(O)CNC(=O)c1cc(NC2COC2)ncn1)N1CCc2ccccc2C1 (centres unmarked) | System: Z-138 cell line | EC50: > 5 µM

The observed EC50 for CC(=O)N1CCC(Nc2cc(C(=O)NC[C@H](O)CN3CCc4ccccc4C3)cc(N3CCN(C)CC3)n2)CC1 when tested with Z-138 cell line stands at < 0.1 µM
